- Test system: MCF7
- assay_details: Cytotoxicity against human MCF7 after 3 days by SRB assay
- Format: functional, cell-based
- run_parameters: MCF7, 72 h
pEC50: −log10 of the molar value.
Class key for pEC50 values: bucket A: < 6; bucket B: ≥ 6 and < 7; bucket C: ≥ 7

{"molecule": "COc1cc2c(c(OC)c1OC)-c1ccc(OC)c(=O)cc1[C@@H](NC(C)=O)CC2 (stereo in doubt; 1)", "study_target": "MCF7", "assigned_class": "bucket C"}
{"molecule": "CN[C@H]1CCc2cc(OC)c(OC)c(OC)c2-c2ccc(OC)c(=O)cc21", "study_target": "MCF7", "assigned_class": "bucket B"}
{"molecule": "COc1ccc2c(c1O)[C@@H](NC(C)=O)CCc1cc(OC)c(OC)c(OC)c1-2", "study_target": "MCF7", "assigned_class": "bucket B"}

[in] GET /class?item= COC1=C2c3ccc(OC)c(=O)cc3[C@H]3CC4(C)N3C24C=C(O)C1=O (some centres undefined)
[out] bucket A

[in] GET /class?item= CN[C@H]1CCc2cc(O)c(O)c(OC)c2-c2ccc(OC)c(=O)cc21
[out] bucket A
